assay: growth modulation of vineyard yeast isolate – strain RM11-1a, OD600, basal, 24 h, primary screen (AID 1177);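 further: cultures grown under basal conditions with no added stressor; test concentration not given here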; settings: S. cerevisiae RM11-1a growth, OD600, 24 h; higher = more signal, called active from +8 up or from −8 down

molecule | z-score
COCCCNC(=O)[C@@]1(Cc2ccccc2CN=[N+]=[N-])N=C(c2ccc(OCCCO)cc2)O[C@H]1c1ccccc1CN=[N+]=[N-] | -0.016
C[N+](C)(C)CCCC[C@@H]1NC(=O)[C@@H]2C[C@H](C(=O)NCCCCCCNC(=O)CS)[C@H](c3ccc(O)cc3)N2C1=O | 0.144
CN1C(=O)C2C=CC(C(O)C=Cc3ccc([N+](=O)[O-])cc3)N(Nc3ccccc3)C2C1=O (stereo not given) | -0.709
CC(C)Cc1ccc(CN2CC[C@@H](N)C2)cc1 | -0.0782
CCN(CC)c1ccc(N2CC=CC34O[C@@H]5C=CCOC(=O)[C@@H]5[C@H]3C(=O)N(CCCCCCO)[C@@H]4C2=O)cc1 (stereo not given in full) | -0.5
Cc1ccc(S(=O)(=O)N2C[C@@H](C(=O)O)[C@H](Sc3ccccc3)C[C@H]2c2ccccc2)cc1 | -0.339
C=CCOC(=O)[C@H]1[C@@H]2C(=O)O[C@@H](c3ccccc3)[C@@H](c3ccccc3)N2[C@@H](c2ccc(OCCOC(=O)[C@@H]3C[C@@H]4C(=O)N5CCC[C@H]5C(=O)N4[C@@H]3c3cccc(OCCO)c3)cc2)[C@]12C(=O)Nc1ccc(I)cc12 | 1.29
[N-]=[N+]=Nc1ccccc1C[C@]1(C(=O)NCc2ccccc2)N=C(c2ccc(OCCCO)cc2)O[C@H]1c1ccccc1N=[N+]=[N-] | 0.879
O=C1OCC=C[C@H]2OC34C=CCN(Cn5nnc6ccccc65)C(=O)[C@H]3N(CCCCCO)C(=O)[C@@H]4[C@@H]12 (stereo not given in full) | -0.273
COc1ccc([Si](C)(C)[C@H]2[C@H](CC(=O)N3CCC[C@H]3CO)O[C@@]3(C(=O)N(Cc4cccc(N5CCOC5=O)c4)c4ccccc43)[C@@H]2C)cc1 | 0.177
CC(C)(C)OC(=O)CC[C@@]1(C(=O)N2CCCCC2)N=C(c2ccc(OCCCO)cc2)O[C@@H]1c1ccccc1 | 0.262
O=C1NC(=O)C2C1C=CC(C(O)c1ccc(-c3ccccc3)s1)N2Nc1ccc(Cl)cc1Cl (stereo not given) | 0.856
CC(=O)NCCCC[C@@H]1NC(=O)[C@H]2C[C@@H](C(=O)NCCCCCNC(=O)CS)[C@@H](c3ccc(O)cc3)N2C1=O | 0.949
C#CCOc1ccc(C[C@@H](C(=O)OC)N(CC#C)[C@@H](/C=C/C2CC2)[C@H](O)Cc2ccccc2)cc1 | 1.45
C=CC[C@]12N=C(c3ccc(OCCCO)cc3)O[C@H]1c1ccccc1N(CCS(=O)(=O)c1ccccc1)C2=O | 1.05

###

target: Epidermal growth factor receptor (Homo sapiens) (UniProt P00533); assay: compounds binding epidermal growth factor receptor – biochemical, small-molecule microarray, 635 nm fluorescence, primary screen (AID 1104); details: EGFR binding, higher = more signal;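 further: score merges 667 nm emission intensity with spot signal to noise over triplicate slides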
Sequence (P00533 whole entry, looked up): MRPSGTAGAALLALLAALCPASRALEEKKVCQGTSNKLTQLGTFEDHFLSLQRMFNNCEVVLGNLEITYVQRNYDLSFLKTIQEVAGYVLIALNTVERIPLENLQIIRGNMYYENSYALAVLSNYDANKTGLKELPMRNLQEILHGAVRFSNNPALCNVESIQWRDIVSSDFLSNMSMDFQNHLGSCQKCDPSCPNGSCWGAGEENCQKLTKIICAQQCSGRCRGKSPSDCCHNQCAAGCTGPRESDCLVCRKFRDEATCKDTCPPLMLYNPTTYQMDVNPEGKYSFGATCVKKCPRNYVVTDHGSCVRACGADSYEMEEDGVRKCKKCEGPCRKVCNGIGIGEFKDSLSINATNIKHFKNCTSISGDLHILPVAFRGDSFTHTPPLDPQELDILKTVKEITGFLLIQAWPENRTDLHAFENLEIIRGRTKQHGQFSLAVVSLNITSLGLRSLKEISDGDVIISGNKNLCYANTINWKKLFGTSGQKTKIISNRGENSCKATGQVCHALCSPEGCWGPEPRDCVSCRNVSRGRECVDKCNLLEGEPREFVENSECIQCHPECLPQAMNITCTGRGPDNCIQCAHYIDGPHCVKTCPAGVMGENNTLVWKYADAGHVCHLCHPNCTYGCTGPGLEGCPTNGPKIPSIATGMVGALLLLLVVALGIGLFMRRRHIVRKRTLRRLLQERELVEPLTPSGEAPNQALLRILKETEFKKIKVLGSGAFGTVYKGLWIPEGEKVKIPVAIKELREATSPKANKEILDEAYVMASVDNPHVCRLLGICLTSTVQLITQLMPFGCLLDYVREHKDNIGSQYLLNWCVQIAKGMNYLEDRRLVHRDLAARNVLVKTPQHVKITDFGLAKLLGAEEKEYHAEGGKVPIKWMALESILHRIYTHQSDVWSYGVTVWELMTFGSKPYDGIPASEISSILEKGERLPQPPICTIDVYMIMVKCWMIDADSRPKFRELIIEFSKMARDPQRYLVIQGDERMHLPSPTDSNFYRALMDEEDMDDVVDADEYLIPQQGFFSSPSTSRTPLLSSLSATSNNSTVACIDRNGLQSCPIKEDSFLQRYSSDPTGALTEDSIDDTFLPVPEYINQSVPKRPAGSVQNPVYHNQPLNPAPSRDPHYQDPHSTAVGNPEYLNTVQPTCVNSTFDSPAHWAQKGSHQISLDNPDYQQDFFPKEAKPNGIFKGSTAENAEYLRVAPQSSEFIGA
Reported composite z-score values follow for various compounds
observable: composite z-score

compound | value-measured
COC(=O)[C@@]1(Cc2ccc(OC)cc2)[C@H]2c3cc(C(=O)N4CCCC4)n(CCc4ccc(O)c(O)c4)c3C[C@H]2CN1C(=O)c1ccccc1 | -0.352
CC(=O)Nc1cc(Br)ccc1C(=O)NCc1ccccc1 | -0.274
COc1ccc([Si](C)(C)[C@H]2[C@H](CCO)O[C@@]3(C(=O)N(Cc4ccccc4)c4ccc(N5CCCCC5=O)cc43)[C@@H]2C)cc1 | 0.199
O=C1C2C=CC(C(O)c3cc(C(F)(F)F)cc(C(F)(F)F)c3)N(Nc3ccccc3)C2C(=O)N1c1ccccc1 (configuration not stated) | -0.303
COc1ccc([Si](C)(C)[C@@H]2[C@@H](CC(=O)N3Cc4ccccc4C[C@H]3CO)O[C@]3(C(=O)N(Cc4cccc(N5CCC5=O)c4)c4ccccc43)[C@H]2C)cc1 | 0.73
COC(=O)[C@H](Cc1ccccc1)N[C@H](/C=C/C1CC1)[C@@H](O)Cc1ccccc1 | -0.579
CCOC(=O)[C@H]1C/C=C/C[C@H](C(=O)OCC)C(=O)O[C@H]2[C@@H](OC)O[C@H](CO)[C@@H](OC(=O)c3ccc(Br)cc3)[C@@H]2OC1=O | 0.0445

###

biological target: Follistatin-related protein 3 (Homo sapiens); experiment: compounds binding follistatin-related protein 3 – biochemical, small-molecule microarray, 635 nm fluorescence, primary screen (AID 1105); conditions: FSTL3 binding, higher = more signal;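 further: score merges emission near 667 nm and signal to noise per printed spot across three slides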
Field: class. Source value: composite z-score. Ranges: b0: < -0.2; b1: ≥ -0.2 and < 0.7; b2: ≥ 0.7

molecule | qualitative-label
O=C(CS)NCCCCCNC(=O)[C@@H]1C[C@@H]2C(=O)NCC(=O)N2[C@@H]1c1ccc(O)cc1 | b1
O=C1C2C=CC(C(O)c3c(F)cccc3Cl)N(Nc3ccccc3F)C2C(=O)N1c1ccccc1 (centres undefined) | b1
C[C@H]1C2[C@H](Cc3ccccc3)NC(=O)[C@]23C(=O)NCC(=O)N2CCC[C@H]2C(=O)NC/C=C/CCC/C=C/C3[C@@H]2O[C@]12C (some centres undefined) | b0
O=C1[C@H]2C=C(Br)[C@H](C[C@@H]2OCCCCCCO)[C@@]12CO2 | b1
COCCOC(=O)N1C(=O)[C@@]2(c3ccccc31)[C@H](c1ccc(OCCO)cc1)N1[C@H](c3ccccc3)[C@H](c3ccccc3)OC(=O)[C@H]1[C@@H]2C(=O)N1CCc2cc(OC)c(OC)cc2C1 | b2
CCCC=C(CCC)[C@@H](NS(=O)(=O)c1ccc(Cl)cc1)c1ccc(C(=O)OC)cc1 | b0
COCCOC(=O)N1C(=O)[C@@]2(c3cc(C#CCCO)ccc31)[C@H](c1ccc(OCCO)cc1)N1[C@H](c3ccccc3)[C@H](c3ccccc3)OC(=O)[C@H]1[C@@H]2C(N)=O | b2
C#CCNCc1ccccc1 | b1
COc1ccc([Si](C)(C)[C@@H]2[C@@H](CCn3cc([C@H](O)c4ccccc4)nn3)O[C@]3(C(=O)N(Cc4cccc(N5CCC5=O)c4)c4ccccc43)[C@H]2C)cc1 | b0
O=C1O[C@@H](c2ccccc2)[C@@H](c2ccccc2)N2[C@@H](c3ccc(OCCO)cc3)[C@]3(C(=O)Nc4ccc(C#CCCO)cc43)[C@@H](C(=O)NC[C@H](O)c3ccccc3)[C@H]12 | b2
[N-]=[N+]=Nc1ccccc1C[C@@]1(C(=O)N2CCCCC2)N=C(c2ccc(OCCCO)cc2)O[C@@H]1c1ccccc1N=[N+]=[N-] | b1
COCCOC(=O)N1C(=O)[C@@]2(c3ccccc31)[C@H](C(=O)N1CCCCCCC1)[C@H]1C(=O)O[C@H](c3ccccc3)[C@H](c3ccccc3)N1[C@@H]2c1ccc(OCCO)cc1 | b2

###

molecular target: Follistatin (Homo sapiens) (UniProt P19883); experiment: FST protein binding to printed compounds – biochemical, small-molecule microarray, 635/667 nm fluorescence, primary screen (AID 1132); conditions: 635 nm fluorescence, higher = more signal
Sequence (P19883 whole entry, looked up): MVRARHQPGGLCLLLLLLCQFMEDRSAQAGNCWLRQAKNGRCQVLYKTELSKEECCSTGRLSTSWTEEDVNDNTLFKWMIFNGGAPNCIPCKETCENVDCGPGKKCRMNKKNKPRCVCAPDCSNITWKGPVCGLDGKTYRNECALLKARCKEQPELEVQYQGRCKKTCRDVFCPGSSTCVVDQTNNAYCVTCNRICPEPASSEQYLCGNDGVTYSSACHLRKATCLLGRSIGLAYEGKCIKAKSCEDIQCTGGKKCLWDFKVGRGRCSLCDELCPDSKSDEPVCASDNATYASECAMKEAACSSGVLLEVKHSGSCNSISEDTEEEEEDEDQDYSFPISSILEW
Cut-off 0.6 on composite z-score, inclusive. At or above means met; below means not met.

molecule | qualitative-label
O=C(O)[C@@]1(CCS(=O)(=O)c2ccccc2)N=C(c2ccc(OCCCO)cc2)O[C@H]1c1ccccc1 | not met
C#CCN1[C@H](/C=C/C2CC2)[C@H](Cc2ccccc2)OC(=O)[C@@H]1Cc1ccccc1 | not met
Cc1ccc(S[C@]2(C(=O)O)CC(=O)N(C(C)C)[C@@H]2c2ccc(CO)cc2)cc1 | not met
O=C1C2C=CC(C(O)c3ccc4c(c3)OCO4)N(Nc3ccc([N+](=O)[O-])cc3)C2C(=O)N1c1ccccc1 (configuration not stated) | not met
COCC(=C=CC[C@@H](O)c1ccc(OCCO)cc1)C[C@@H](O)c1ccccn1 | met

###

target: Calmodulin-1 (Homo sapiens); experiment: small molecules binding Ca-loaded calmodulin-1 – biochemical, small-molecule microarray, Cy5-labelled CALM1, plus calcium, artefact control for SMM control-protein annotation, profiling panel (AID 1112); settings: Cy5-CALM1 binding fluorescence, higher = more signal;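 further: score merges spot fluorescence with signal to noise from triplicate slides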
Reported composite z-score values follow for various molecules
observable: composite z-score

molecule | tested-on | observable | value-measured
Cc1ccc(C2C3C(=O)CC4C(=O)N(c5ccccc5)C(=O)C4C3CN2S(=O)(=O)c2ccc(C)cc2)cc1 (stereo unspecified) | Calmodulin-1 (Homo sapiens) | composite z-score | 0.531
CO[C@H]1O[C@H](CO)[C@@H](OC(=O)Nc2ccc(Br)cc2)[C@@H]2OC(=O)[C@H](Cc3cccc(Br)c3)C/C=C/C[C@@H](Cc3cccc(Br)c3)C(=O)O[C@@H]12 | Calmodulin-1 (Homo sapiens) | composite z-score | 0.609
COCCOC(=O)N1C(=O)[C@@]2(c3cc(C#CC4=CCCCC4)ccc31)[C@H](c1ccc(OCCO)cc1)N1[C@H](c3ccccc3)[C@H](c3ccccc3)OC(=O)[C@H]1[C@@H]2C(=O)N1CCc2cc(OC)c(OC)cc2C1 | Calmodulin-1 (Homo sapiens) | composite z-score | 0.43
CCCCN1CC=CC23O[C@@H]4/C=C\CCCOC(=O)C4[C@H]2C(=O)N(CCCCCO)[C@@H]3C1=O (stereo partly specified) | Calmodulin-1 (Homo sapiens) | composite z-score | -1.24
NC(=O)[C@@H]1[C@H]2C(=O)O[C@H](c3ccccc3)[C@H](c3ccccc3)N2[C@H](c2ccc(OCCO)cc2)[C@@]12C(=O)Nc1ccc(C#CC3=CCCCC3)cc12 | Calmodulin-1 (Homo sapiens) | composite z-score | -0.223
O=C(NCCN1CCOCC1)[C@@H]1c2ccccc2C(=O)N(Cc2cc(C(F)(F)F)cc(C(F)(F)F)c2)[C@H]1c1ccc(CO)cc1 | Calmodulin-1 (Homo sapiens) | composite z-score | -0.198
